System: OVCAR-5 ovarian
Experimental Details: NCI-60 one-dose screen, 48 h (100 = growth as untreated, 0 = no growth, -100 = all killed)
Setup Conditions: 10 µM unless noted
This is part of a sample that, as a whole, favours compounds with a hit. Of some 83,000 tested, about 20% had one in any assay.
Endpoint Label: growth (%)

CCCCN(CC)CC(CC)Nc1cc(OC)cc2cccnc12 (stereo not drawn) = 103
C#CC(OC(=O)N(C)C)(c1ccccc1)c1ccc(F)cc1 (stereo not drawn) = 93.4
N=C(N)c1ccc(-c2ccc(-c3ccc(-c4cccs4)s3)s2)cc1F = 75.8
N#C/C(C(=O)c1ccccc1)=C1/C(=O)Nc2ccc(F)cc21 = 106
COc1cc(NCc2cn(-c3ccc(C(=O)O)cc3)nc2-c2ccc(C(=O)O)cc2)cc(OC)c1OC = 94.8
Cc1cc(C)c(-c2cc(O)c(-c3c(C)cc(C)cc3C)cc2O)c(C)c1 = 50.7
CSc1cccc([N+](=O)[O-])c1 = 101
CC(C)C1=NOC(=O)C1=Cc1cn(-c2ccccc2)nc1-c1cccc([N+](=O)[O-])c1 = 106
Brc1ccc2c(c1)CN(C1CCCCC1)CO2 = 97.9
Cc1ncc(C(=O)Nc2ccc(CN3CCN(C)CC3)c(C(F)(F)F)c2)cc1C#Cc1c(N)ncc2ccc(C#N)cc12 = 41.2
COc1ncc(-c2ccc3nccc(C#CCCCCC(=O)O)c3c2)cc1NS(=O)(=O)c1ccc(F)cc1F = 22.7
CC1(C)S[C@@H]2[C@H](NC(=O)[C@H](C(=O)O)c3cccs3)C(=O)N2[C@H]1C(=O)O = 100
Cn1ncc2c(Nc3ccc(O)cc3)nc(Cl)nc21 = 105

----------
Tested on: OVCAR-3 ovarian
Experimental Details: NCI-60 one-dose screen, 48 h
Setup Conditions: 10 µM unless noted
About 83,000 compounds went through this panel and 20% of them were active in at least one assay; those are over-represented in the sample as a whole. Active and inactive are the calls of the source. How the source made its calls: active means growth percent below 10; inactive means the rest.
Outcomes: active, inactive

O=C(N/N=C/c1c(Cl)cccc1Cl)c1cccc(Nc2ccnc(C(F)(F)F)c2)c1 = inactive
CC(C)=CC/C=C(/C)[C@H]1CC[C@]2(C)[C@@H]1CC[C@@H]1[C@@]3(C)CCC(=O)NC(C)(C)[C@@H]3CC[C@]12C = active
CNC(=O)c1cc(Oc2cccc3nc(NC(=O)Nc4cc(C(F)(F)F)cc(C(F)(F)F)c4)ccc23)ccn1 = active
COc1ncnc2c(-c3ccccc3)cn(COCc3ccccc3)c12 = inactive
C[C@H]1[C@H](C)CC[C@]2(C(=O)O)CC[C@]3(C)C(=CC[C@@H]4[C@@]5(C)C/C(=C/c6ccco6)C(=O)C(C)(C)[C@@H]5CC[C@]43C)[C@H]12 = active
CC(C)C1=NOC(=O)C1=Cc1cn(-c2ccccc2)nc1-c1ccccc1 = inactive
CCN(CC)CCCOc1ccc2c(c1)O/C(=C\c1cccc(OC)c1)C2=O = inactive
COc1ccc(-c2cc(-c3ccccc3)nc(SCCCCCC(=O)NO)n2)cc1 = inactive

----------
System: UACC-62 melanoma
Experimental Details: NCI-60 one-dose screen, 48 h
Setup Conditions: 10 µM unless noted
This is part of a sample that, as a whole, favours compounds with a hit. Of some 83,000 tested, about 20% had one in any assay. Active and inactive are the calls of the source. Rule for the calls: active = growth percent below 10; inactive = the rest.
Outcomes: yes (1) (active), no (0) (inactive)

CO[C@H]1CC[C@@]2(C)C(=CC[C@H]3[C@@H]4C[C@H](O)C[C@@]4(C)CC[C@@H]32)C1 = no (0)
COC(=O)[C@]1(C)CC[C@]2(C)CC[C@]3(C)C(=CC(=O)[C@@H]4[C@@]5(C)CCC(=O)NC(C)(C)[C@@H]5CC[C@]43C)[C@@H]2C1 = yes (1)
O=C1/C(=C\c2cn(CC(O)CN3CCCCC3)c3ccccc23)c2ccccc2N1c1c(Cl)cccc1Cl (stereo unspecified) = yes (1)
O=S(=O)(NCc1ccccc1)c1ncnc2nc[nH]c12 = no (0)
Nc1ccc(NC(=O)c2ccccc2)c2c1C(=O)c1ccccc1C2=O = no (0)
COc1ncc(-c2ccc3nccc(C#CCCCCC(=O)O)c3c2)cc1NS(=O)(=O)c1ccc(F)cc1F = yes (1)
COc1cc(-c2cc(-c3ccc(Nc4ncnc5cc(Cl)ccc45)cc3)nc(N3CCCCC3)n2)cc(OC)c1OC = no (0)
CCOC(=O)c1sc2nc(-c3cc(OC)c(OC)c(OC)c3)nc(N3CCOCC3)c2c1C = no (0)
O=C(COc1cccc(/C=C2\Oc3ccccc3C2=O)c1)c1ccc([N+](=O)[O-])cc1 = no (0)
CCCCC(CC)COC(=O)C[N+](C)(C)CCOC(c1ccccc1)c1ccccc1 (stereo unspecified) = yes (1)
COC(=O)c1cc(O)c2c(c1C(=O)OC)C[C@H]1[C@@H]3CC=C4C[C@@H](O)CC[C@]4(C)[C@H]3CC[C@]21C = no (0)
O=C(NCCCCCCCNC(=O)OCc1ccc2c(Cl)cc(Cl)c(O)c2n1)OCc1ccc2c(Cl)cc(Cl)c(O)c2n1 = yes (1)
CC1(C)CC[C@]2(C(=O)OC(=O)[C@]34CCC(C)(C)C[C@@H]3C3=CC[C@@H]5[C@@]6(C)CCC(=O)C(C)(C)[C@@H]6CC[C@@]5(C)[C@]3(C)CC4)CC[C@]3(C)C(=CC[C@@H]4[C@@]5(C)CCC(=O)C(C)(C)[C@@H]5CC[C@]43C)[C@H]2C1 = no (0)
CCC(C)[C@H](NC(=O)NC(=O)NC(=O)CI)C(=O)OC (stereo partly specified) = no (0)
CNC(=O)c1cc(Oc2cccc3nc(NC(=O)Nc4cc(C(F)(F)F)cc(C(F)(F)F)c4)ccc23)ccn1 = no (0)
COc1ccc(C(=O)CSc2nccc(Nc3ccc(C(=O)O)cc3)n2)cc1 = no (0)
